# Tested on: 885512-296-R-J2-PDC complex spheroid viability
# protocol notes: Anticancer human tumor 885512-296-R-J2-PDC patient-derived breast carcinoma cell line growth inhibition [GQUAD]
# condition: second compound 3.16 µM; first compound 0.0316 µM; hits give low values
endpoint name: viability, T/C (%)
One number for each entry, in %.

Reference set, count: 4
Cn1ncnc1[C@H]1c2n[nH]c(=O)c3cc(F)cc(c23)N[C@@H]1c1ccc(F)cc1 + CN(C)c1ccc(Nc2c3ccc(NC(=O)CCN4CCCC4)cc3nc3cc(NC(=O)CCN4CCCC4)ccc23)cc1 :: 64.7
CC(C)n1c(=O)n(C)c2cnc3cc(F)c(-c4ccc(OCCCN5CCCCC5)nc4)cc3c21 + Cc1cnc(CNC(=O)c2c(=O)c3ccc(N4CCCN(C)CC4)nc3n3c2sc2ccccc23)cn1 :: 21.9
COc1cccc2c1C(=O)c1c(O)c3c(c(O)c1C2=O)CC(O)(C(=O)CO)CC3OC1CC(N)C(O)C(C)O1 (stereo not given) + Cc1[nH]c2ccc(F)cc2c1-c1nc2c3cccnc3c3ncccc3c2[nH]1 :: 17.2
COc1ccc([C@@H](O)c2cc(-c3ncnc4cc(N5CCOCC5)ccc34)c(F)cc2Cl)nn1 + Cc1[nH]c2ccc(F)cc2c1-c1nc2c3cccnc3c3ncccc3c2[nH]1 :: 11.3

Prompt line: # input compound: CC(=O)O[C@H]1C(=O)[C@@]2(C)[C@H]([C@H](OC(=O)c3ccccc3)[C@]3(O)C[C@H](OC(=O)[C@H](O)[C@@H](NC(=O)c4ccccc4)c4ccccc4)C(C)=C1C3(C)C)[C@]1(OC(C)=O)CO[C@@H]1C[C@@H]2O + Cc1[nH]c2ccc(F)cc2c1-c1nc2c3cccnc3c3ncccc3c2[nH]1 ; wanted: its viability, T/C
Response line: 3.83

====

# System: 885512-296-R-J2-PDC complex spheroid viability
# protocol notes: Anticancer human tumor 885512-296-R-J2-PDC cell line growth inhibition [GQUAD]; active = viability on the fitted dose curve at most 10% of control; inactive = the rest;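 further: spheroids exposed to the compounds for one week; percent of tumor spheroid viability relative to DMSO vehicle control wells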
# condition: second compound 0.316 µM; first compound 0.1 µM
Mark one answer only. Choices: active, inactive

// known answers, use as guide
CC1COCCN1c1cc(C2(S(C)(=N)=O)CC2)nc(-c2ccnc3[nH]ccc23)n1 (stereo not drawn) + Cc1cnc(CNC(=O)c2c(=O)c3ccc(N4CCCN(C)CC4)nc3n3c2sc2ccccc23)cn1 :: inactive
O=C(NO)c1cnc(N2CCN(S(=O)(=O)c3ccc4ccccc4c3)CC2)nc1 + Cc1[nH]c2ccc(F)cc2c1-c1nc2c3cccnc3c3ncccc3c2[nH]1 :: active

Prompt line: I'd appreciate the recorded outcome for COc1cc(C2c3cc4c(cc3C(OC3OC5COC(C)OC5C(O)C3O)C3COC(=O)C23)OCO4)cc(OC)c1O (stereo not drawn) + Cc1cnc(CNC(=O)c2c(=O)c3ccc(N4CCCN(C)CC4)nc3n3c2sc2ccccc23)cn1 from this test.
Response line: inactive

====

# Tested on: 885512-296-R-J2-PDC complex spheroid viability
# protocol notes: Anticancer human tumor 885512-296-R-J2-PDC cell line growth inhibition [GQUAD]; active = viability on the fitted dose curve at most 10% of control; inactive = the rest;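 further: spheroids exposed to the compounds for one week; percent of tumor spheroid viability relative to DMSO vehicle control wells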
# condition: second compound 0.1 µM; first compound 0.316 µM
Respond with a class label; see T (active), F (inactive)

Recorded results for 4 compounds are shown here.
CCCS(=O)(=O)Nc1ccc(F)c(C(=O)c2c[nH]c3ncc(-c4ccc(Cl)cc4)cc23)c1F + Cc1[nH]c2ccc(F)cc2c1-c1nc2c3cccnc3c3ncccc3c2[nH]1 :: F
Cc1cccc(N(C)C(=O)C2C(O)CCN2c2nc(C)cc(C(F)(F)F)c2C#N)c1 (stereo not given) + CN(C)c1ccc(Nc2c3ccc(NC(=O)CCN4CCCC4)cc3nc3cc(NC(=O)CCN4CCCC4)ccc23)cc1 :: F
CC1COCCN1c1cc(-c2ccnn2C)c2ccnc(-c3ccn[nH]3)c2n1 (stereo not given) + CN(C)c1ccc(Nc2c3ccc(NC(=O)CCN4CCCC4)cc3nc3cc(NC(=O)CCN4CCCC4)ccc23)cc1 :: T
COc1ccc([C@@H](O)c2cc(-c3ncnc4cc(N5CCOCC5)ccc34)c(F)cc2Cl)nn1 + Cc1cnc(CNC(=O)c2c(=O)c3ccc(N4CCCN(C)CC4)nc3n3c2sc2ccccc23)cn1 :: F

Next:
Prompt line: Called result for CC(C)n1c(=O)n(C)c2cnc3cc(F)c(-c4ccc(OCCCN5CCCCC5)nc4)cc3c21 + CN(C)c1ccc(Nc2c3ccc(NC(=O)CCN4CCCC4)cc3nc3cc(NC(=O)CCN4CCCC4)ccc23)cc1
Response line: F
